Assay: Anti-angiogenic activity in human endothelial cells assessed as reduction in cell growth incubated for 11 days by PECAM-1 staining based image analysis
Conditions: 264 h
pIC50: −log10 of the molar value.
Measured pIC50 values are reported for all entries that follow.
ENDPOINT: pIC50

STRUCTURE_SMILES_STRING	ENDPOINT	RECORDED_MEASUREMENT
CCCNc1ccc(N2C(=O)c3ccc(C(=O)O)cc3C2=O)cc1-c1nc2cc(-c3ccc(Br)cc3)ccc2o1	pIC50	6.60
COc1ccc(N2C(=O)c3ccc(C(=O)O)cc3C2=O)cc1-c1nc2cc(-c3ccc4c(c3)OCO4)ccc2o1	pIC50	5.52
O=C(O)c1ccc2c(c1)C(=O)N(c1cccc(-c3nc4ccccc4o3)c1)C2=O	pIC50	4.40
O=C(O)Cc1ccc2oc(-c3ccc(/C=C/C(=O)Nc4ccc(Cl)cc4Cl)cc3F)nc2c1	pIC50	5.70
O=C(O)Cc1nc(-c2ccc(-c3ccc(NC(=O)/C=C/c4ccc(Br)cc4)cc3Cl)o2)cs1	pIC50	6.00
